Values were extracted from patent US8175815B2.

- Procedure text: equilibrium solubility-pH, direct-UV microtitre plate (μSOL Evolution) with and without excipients
- Study conditions: aqueous universal buffer (pION), saturated drug suspension, pKa^APP ± SD, apparent ionization constant; excipient 0.1M KCl
Measure: pKa at 18 h

{"columns": ["Molecule", "Result"],
 "data": [
  ["OCCN(CCO)c1nc(N2CCCCC2)c2nc(N(CCO)CCO)nc(N3CCCCC3)c2n1", 6]
]}

1. CCCCN(CCCC)CCCOC(=O)c1ccc(N)cc1
2. Cc1cccc(Nc2ccccc2C(=O)O)c1C
Lower value for measured pKa at 18 h? Options: 1 , 2 # respond with the chosen item's label
2
(2: 4.4, 1: 8.3)
